- target-or-test-system: PAD2 (Homo sapiens)
- Construct: made in house
- Sequence (Q9Y2J8 whole entry): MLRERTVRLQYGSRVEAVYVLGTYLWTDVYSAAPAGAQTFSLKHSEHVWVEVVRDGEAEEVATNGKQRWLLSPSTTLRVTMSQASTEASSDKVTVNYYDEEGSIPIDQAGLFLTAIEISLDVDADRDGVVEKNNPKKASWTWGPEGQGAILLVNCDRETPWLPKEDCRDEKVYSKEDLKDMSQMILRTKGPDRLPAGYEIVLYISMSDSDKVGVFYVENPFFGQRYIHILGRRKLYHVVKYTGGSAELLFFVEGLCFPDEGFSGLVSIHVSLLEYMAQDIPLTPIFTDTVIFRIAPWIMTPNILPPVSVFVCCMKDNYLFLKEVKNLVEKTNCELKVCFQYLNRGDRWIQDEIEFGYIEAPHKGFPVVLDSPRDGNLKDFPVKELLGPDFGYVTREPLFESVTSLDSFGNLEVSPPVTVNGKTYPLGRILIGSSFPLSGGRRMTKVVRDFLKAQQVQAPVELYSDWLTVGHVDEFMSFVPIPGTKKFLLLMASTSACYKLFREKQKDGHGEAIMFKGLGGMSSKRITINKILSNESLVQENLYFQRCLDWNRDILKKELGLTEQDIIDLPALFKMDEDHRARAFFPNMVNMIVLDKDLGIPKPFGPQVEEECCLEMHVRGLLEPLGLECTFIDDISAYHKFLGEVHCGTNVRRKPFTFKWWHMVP
- test-summary: Inactivation kinetics, PAD2
- Assay type: biochemical
- experimental-setup: PAD2, table footnote
- Protocol: Inactivation kinetic parameters were determined by incubating PAD1, 2, or 4 (2.0 μM) or PAD3 (5.0 μM) in a pre-warmed (10 min; 37° C.) inactivation mixture (50 mM HEPES, 10 mM CaCl2, and 2 mM DTT, pH 7.6, with a final volume of 60 μL) containing various concentrations of inhibitor. […] After 15 min, reactions were quenched in liquid nitrogen and citrulline production quantified using the COLDER assay. […]
Each entry below carries its recorded kinact.
observation-type: kinact (s⁻¹)

                               smiles_input  observation_type  result_value
0  CCOc1cccc2c1nc([C@H](CCCNC(=N)CF)NC(=O)c1cccc3c1C(=O)NC3)n2C            kinact        0.0868
1  CCN1Cc2cccc(C(=O)N[C@@H](CCCNC(=N)CF)c3nc4cc(OC)ccc4n3C)c2C1=O            kinact        0.0417
2  N=C(CF)NCCC[C@H](NC(=O)c1cccc2c1C(=O)NC2)c1nc2ccccc2[nH]1            kinact        0.0373
3  CCN1Cc2cccc(C(=O)N[C@@H](CCCNC(=N)CF)c3nc4c(OC)cccc4n3C)c2C1=O            kinact        0.0323
